Attribution: patent US20240207282A1

assay: Pharmacokinetics in mice (plasma and brain); type: in vivo, mouse; conditions: male, ICR (CD-1), mouse, brain/plasma, po; administered orally; read-out: AUC brain/plasma
PROPERTY: Kp
Lab note: record the figure alone, no unit after it.

QUERY: Please report the recorded Kp for CC(=O)Nc1ccc(-c2cnc3cc(Cl)ccc3n2)cc1 [CA77.1] .
RESULT: 5.73

* * *

assay: Pharmacokinetics in mice (plasma and brain); format: in vivo, mouse; conditions: male, ICR (CD-1), mouse, plasma, po; administered orally; read-out: Plasma half-life (converted)
PROPERTY: half-life (h)
Give just the numeric value; h need not be written.

QUERY: Please report the recorded half-life for CC(=O)Nc1ccc(-c2cnc3cc(Cl)ccc3n2)cc1 .
RESULT: 3
